- ASSAY_EXPLANATION: Inhibition of TNF-alpha-induced NFkappaB activation in human HEK293 cells after 6 hrs by luciferase assay
- Assay type: cell-based
- CONDITIONS_USED: HEK293, 6 h
I'd appreciate it if you could supply pIC50 values for the items below.
// pIC50: -log10(molar conc.)

Problem: Given the compound "O=C(O)[C@@H]1Cc2c([nH]c3ccccc23)CN1Cc1ccccc1" , what is its reported pIC50?
Result: 4.67

Problem: Given the compound "COC(=O)[C@@H]1Cc2c([nH]c3ccccc23)CN1C(=O)NC(C)C" , what is its reported pIC50?
Result: 4.58

Problem: Given the compound "COC(=O)[C@@H]1Cc2c([nH]c3ccccc23)CN1C(=O)NCCc1ccccc1" , what is its reported pIC50?
Result: 4.77

Problem: Given the compound "COC(=O)[C@H]1Cc2c([nH]c3ccccc23)CN1Cc1ccccc1" , what is its reported pIC50?
Result: 4.35

Problem: Given the compound "CCCCCNC(=O)N1Cc2[nH]c3ccccc3c2C[C@@H]1C(=O)OC" , what is its reported pIC50?
Result: 4.80

Problem: Given the compound "COC(=O)[C@H]1Cc2c([nH]c3ccccc23)CN1C(=O)NCCc1ccccc1" , what is its reported pIC50?
Result: 4.88
